Where these numbers come from: patent US20210292330A1

Measured CAF (10 minutes/60 minutes) at 10 micromolar: 10 minutes values are reported for all entries that follow.
target: KRAS 4B G12C protein (Homo sapiens, UniProt P01116, G12C); construct: This protein contained 188 amino acids in total, including an N-terminal 6-Histidine tag; made in house; host or cells: E. coli BL21; experiment: In vitro covalent adduct formation (CAF) assay by LC-MS; format: binding; settings: 10 minutes; compound 10 μM, protein 5 μM, 22° C.; percentage of protein bound by the compound
PROPERTY: CAF (10 minutes/60 minutes) at 10 micromolar: 10 minutes (%)

1. C=CC(=O)N1CCN(c2nc(OC[C@@H]3CCCN3C)nc3c2CN(Cc2ccccc2C(F)(F)F)C3)C[C@@H]1CC#N : 94
2. C=CC(=O)N1CCN(c2nc(OC[C@@H]3CCCN3C)nc3c2CN(Cc2cc(F)ccc2C)C3)C[C@@H]1CC#N : 87
3. C=CC(=O)N1C[C@H](C)N(c2nc(OC[C@@H]3CCCN3C)nc3c2CN(Cc2c(C)ccc4[nH]ncc24)C3)C[C@H]1C : 1
4. C=C(F)C(=O)N1CCN(c2nc(OC[C@@H]3CCCN3C)nc3c2CN(Cc2nc(NC)ccc2Cl)C3)C[C@@H]1CC#N : 16
5. C=CC(=O)N1CCN(c2nc(Oc3cccc4c3CCN(C)C4)nc3c2CN(C2CCc4ccccc42)C3)C[C@@H]1CC#N (stereo partly shown) : 9
6. C=CC(=O)N1CCN(c2nc(OC[C@@H]3CCCN3C)nc3c2CN(C2CCc4ccccc42)C3)C[C@@H]1CSC (stereo partly shown) : 0
7. C=CC(=O)N1CCN(c2nc(OC[C@@H]3CCCN3C)nc3c2CN(C2CCCc4cccc(Cl)c42)C3)C[C@@H]1CC#N (stereo partly shown) : 95
8. C=CC(=O)N1CCN(c2nc(OC[C@@H]3CCCN3C)nc3c2CN(Cc2ccc(F)cc2Cl)C3)C[C@@H]1CC#N : 51
9. C=CC(=O)N1C[C@H](C)N(c2nc(OC[C@@H]3CCCN3C)nc3c2CN(Cc2cc(O)ccc2C)C3)C[C@H]1C : 21
10. C=CC(=O)N1CCN(c2nc(OC[C@@H]3CCCN3C)nc3c2CN(Cc2c(C)cc(C)c(O)c2C)C3)C[C@@H]1CC#N : 31
11. C=C(F)C(=O)N1CCN(c2nc(OC[C@@H]3CCCN3C)nc3c2CN(Cc2c(Cl)ccc4ccccc24)C3)C[C@@H]1CC#N : 31
12. C=CC(=O)N1CCN(c2nc(OC[C@@H]3CCCN3C)nc3c2CN(Cc2c(C)cccc2C)C3)[C@@H](C)C1 : 6
13. C=CC(=O)N1[C@H](C)CN(c2nc(OC[C@@H]3CCCN3C)nc3c2CN(Cc2c(Cl)ccc(O)c2C)C3)C[C@@H]1C : 17
14. C=CC(=O)N1CCN(c2nc(OC[C@@H]3CCCN3C(C)(C)C)nc3c2CN(C2CCc4ccccc42)C3)C[C@@H]1CC#N (stereo partly shown) : 82
15. C=CC(=O)N1CCN(c2nc(OC[C@@H]3CCCN3C)nc3c2CN(Cc2ccccc2C(C)(C)C)C3)C[C@@H]1CC#N : 94
16. C=CC(=O)N1CCN(c2nc(OC[C@@H]3CCCN3C)nc3c2CN(Cc2cc(O)c(C)cc2Cl)C3)C[C@@H]1CC#N : 72
17. C#CC1CN(c2nc(OC[C@@H]3CCCN3C)nc3c2CN(C2CCc4ccccc42)C3)CCN1C(=O)C=C (stereo partly shown) : 0
18. C=CC(=O)N1CCN(c2nc(OC)nc3c2CN(Cc2cc(O)ccc2Cl)C3)C[C@@H]1CC#N : 89
19. C=CC(=O)N1CCN(c2nc(OC[C@@H]3CCCN3CC(F)F)nc3c2CN(C2CCc4ccccc42)C3)C[C@@H]1CC#N (stereo partly shown) : 78
20. C=C(F)C(=O)N1CCN(c2nc(OC[C@@H]3CCCN3C)nc3c2CN(C2CCc4ccccc42)C3)C[C@@H]1CC#N (stereo partly shown) [1-109] : 48
